Molecular target: PI3K (Homo sapiens)
Sequence (P27986 whole entry): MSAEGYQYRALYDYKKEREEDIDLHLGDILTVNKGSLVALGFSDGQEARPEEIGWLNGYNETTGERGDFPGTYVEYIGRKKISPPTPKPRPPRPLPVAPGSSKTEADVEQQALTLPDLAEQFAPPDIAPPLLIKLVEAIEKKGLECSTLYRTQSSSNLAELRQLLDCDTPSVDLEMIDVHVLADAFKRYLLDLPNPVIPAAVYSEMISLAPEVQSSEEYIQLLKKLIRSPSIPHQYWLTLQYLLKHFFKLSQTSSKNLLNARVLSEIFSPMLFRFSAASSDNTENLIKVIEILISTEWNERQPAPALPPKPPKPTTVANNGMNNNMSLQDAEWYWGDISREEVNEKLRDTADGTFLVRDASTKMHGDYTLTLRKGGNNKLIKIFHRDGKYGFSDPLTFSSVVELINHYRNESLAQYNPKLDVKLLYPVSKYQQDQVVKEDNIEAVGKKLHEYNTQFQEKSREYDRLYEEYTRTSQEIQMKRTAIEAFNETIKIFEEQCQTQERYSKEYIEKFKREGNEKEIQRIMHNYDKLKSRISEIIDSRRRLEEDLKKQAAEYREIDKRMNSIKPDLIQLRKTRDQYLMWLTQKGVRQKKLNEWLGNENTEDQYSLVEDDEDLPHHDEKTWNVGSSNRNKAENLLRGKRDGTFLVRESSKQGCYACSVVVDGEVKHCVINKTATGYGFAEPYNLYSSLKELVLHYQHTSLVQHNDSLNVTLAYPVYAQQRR
Assay: IGF-1-induced PI3K activation in Hep3B cells incubated with peptides
Assay type: cell-based
Set-up: The cell lysates were immunoprecipitated with p85α (sc-1637, Santa Cruz) and Protein G-Sepharose beads; endogenous in cells; host or cells: Hep3B
Conditions: 4 μM peptides, 48 hr, FIG. 2C

| Substance | Measured Target | IGF-1-induced PI3K activation |
| --- | --- | --- |
| ZF-5-wt-20: The peptide comprising a portion of the fifth zinc finger domain of FOG2 (20 amino acids) (CFECNITFNNLDNYLVHKKH) | PI3K (Homo sapiens) | inhibited |
| ZF-3-wt-21: The peptide not comprising the fifth zinc finger domain of FOG2 (LKCTVCSYTADSVINFHQHLF) [reference compound] | PI3K (Homo sapiens) | did not inhibit |
| ZF-5-m-24: FOG2 mutant peptide with altered fifth zinc finger domain (24 amino acids) (CFECNITFNNLDNYLYLVAKKAYC) | PI3K (Homo sapiens) | did not inhibit |
| ZF-5-wt-24: The peptide comprising a portion of the fifth zinc finger domain of FOG2 (24 amino acids); residues 547-570 (GATCFECNITFNNLDNYLVHKKHY) | PI3K (Homo sapiens) | inhibited |
